Each entry below carries its recorded melting point.
observed.property: melting point

* N#Cc1cc(Cl)cc(Oc2c(Br)ccc(CC(=O)Nc3ccc(C(=O)NC(=N)N)cc3Cl)c2F)c1 | 207 to 209 °C
* Cc1cc(C(=O)O)ccc1NC(=O)Cc1ccc(Br)c(Oc2cc(C#N)cc(C(F)F)c2)c1F | 267.9 to 268.1 °C
* Cc1cc(C(=O)O)ccc1NC(=O)Cc1ccc(Br)c(Oc2cc(Cl)cc(C#N)c2)c1F | 270 to 270.8 °C
* N#Cc1cc(Cl)cc(Oc2c(Br)ccc(CC(=O)Nc3ccc(C(=O)NCCN4CCCC4)cc3Cl)c2F)c1 | 197.7 to 198.3 °C
* CC1(NC(=O)c2ccc(NC(=O)Cc3ccc(Br)c(Oc4cc(Cl)cc(C#N)c4)c3F)c(Cl)c2)CCS(=O)(=O)C1 (centres unmarked) | 95 to 105 °C
